This collection of values is drawn from ChEMBL document CHEMBL4828726.

tested on: Escherichia coli; assay: Antibacterial activity against penicillin-susceptible Escherichia coli ATCC 25922 assessed as inhibition of bacterial growth measured after 20 hrs by two-fold microdilution assay; type: functional
Let's look at some molecules and their measured MIC.

Prompt line: Would you mind telling me what MIC value was observed for Cc1cccc2c[n+](C)c3ccc(-c4ccc5ccn(Cc6ccccc6)c5c4)cc3c12.[Cl-] ?
Response line: > 64 µg/mL

New cases:
Prompt line: Would you mind telling me what MIC value was observed for Cc1ccc2c[n+](C)c3ccc(-c4ccc5ccn(CC(C)C)c5c4)cc3c2c1.[Cl-] ?
Response line: > 64 µg/mL

Prompt line: Would you mind telling me what MIC value was observed for CC(=O)NC[C@H]1CN(c2ccc(N3CCOCC3)c(F)c2)C(=O)O1 ?
Response line: > 64 µg/mL

---

tested on: Staphylococcus aureus; assay: Antibacterial activity against clinical isolate Staphylococcus aureus C1 assessed as inhibition of bacterial growth measured after 20 hrs by two-fold microdilution assay; format: functional
observable: MIC (µg/mL)
Please give a number only; it is taken to be in µg/mL.

Worked examples, 5 compounds total:
Prompt line: Would you mind telling me what MIC value was observed for Cc1ccc2c[n+](C)c3ccc(-c4ccc5ccn(C)c5c4)cc3c2c1.[Cl-] ?
Response line: 8

Prompt line: Would you mind telling me what MIC value was observed for Cc1cccc2c[n+](C)c3ccc(-c4ccc5ccn(Cc6ccc(OC(F)(F)F)cc6)c5c4)cc3c12.[Cl-] ?
Response line: 8

Prompt line: Would you mind telling me what MIC value was observed for CCCCCn1ccc2ccc(-c3ccc4c(c3)c3c(C)cccc3c[n+]4C)cc21.[Cl-] ?
Response line: 2

Prompt line: Would you mind telling me what MIC value was observed for Cc1ccc2c[n+](C)c3ccc(-c4ccc5ccn(Cc6ccc(OC(F)(F)F)cc6)c5c4)cc3c2c1.[Cl-] ?
Response line: 4

Prompt line: Would you mind telling me what MIC value was observed for Cc1cccc2c[n+](C)c3ccc(-c4ccc5ccn(Cc6ccccc6)c5c4)cc3c12.[Cl-] ?
Response line: 2

New cases:
Prompt line: Would you mind telling me what MIC value was observed for CCn1ccc2ccc(-c3ccc4c(c3)c3c(C)cccc3c[n+]4C)cc21.[Cl-] ?
Response line: 8

Prompt line: Would you mind telling me what MIC value was observed for CCCn1ccc2ccc(-c3ccc4c(c3)c3cc(C)ccc3c[n+]4C)cc21.[Cl-] ?
Response line: 32

---

system: Staphylococcus aureus; assay: Antibacterial activity against clinical isolate Staphylococcus aureus C1 assessed as inhibition of bacterial growth measured after 20 hrs by two-fold microdilution assay; type: functional
Let's look at some molecules and their measured MIC.
Please give a number only; it is taken to be in µg/mL.

Worked examples, 4 molecules total:
Prompt line: Would you mind telling me what MIC value was observed for Cc1ccc2c[n+](C)c3ccc(-c4ccc5ccn(Cc6ccccc6)c5c4)cc3c2c1.[Cl-] ?
Response line: 2

Prompt line: Would you mind telling me what MIC value was observed for Cc1cccc2c[n+](C)c3ccc(-c4nc5ccccc5s4)cc3c12.[Cl-] ?
Response line: 4

Prompt line: Would you mind telling me what MIC value was observed for CCCCn1ccc2ccc(-c3ccc4c(c3)c3cc(C)ccc3c[n+]4C)cc21.[Cl-] ?
Response line: 4

Prompt line: Would you mind telling me what MIC value was observed for CCCCn1ccc2ccc(-c3ccc4c(c3)c3c(C)cccc3c[n+]4C)cc21.[Cl-] ?
Response line: 4

New cases:
Prompt line: Would you mind telling me what MIC value was observed for Cc1cccc2c[n+](C)c3ccc(-c4ccc5ccn(Cc6ccc(C(F)(F)F)cc6)c5c4)cc3c12.[Cl-] ?
Response line: 8

Prompt line: Would you mind telling me what MIC value was observed for Cc1ccc2c[n+](C)c3ccc(-c4ccc5ccn(CC(C)C)c5c4)cc3c2c1.[Cl-] ?
Response line: 4

Prompt line: Would you mind telling me what MIC value was observed for C[n+]1cc2c3c(ccc2c2ccc4cc5c(cc4c21)OCO5)OCO3 [SANGUINARIUM] ?
Response line: 4
